Target: ScBzz1-D2
Experiment: SPOT peptide array binding signal intensity (averaged, normalized) (arbitrary units (background-subtracted, floor 0; scale differs between SH3 domains)); higher = stronger binding of the SH3 domain to the peptide
// FALSE strictly below 20 in SPOT peptide array binding signal intensity; TRUE otherwise

Sample answers from the record:
TPTSGPPLLPPRNTM : FALSE
NRARYLPQNPDIIAG : FALSE
ALFRLSFFFPLDPAY : TRUE
NFFRKKLGIPRKLKR : FALSE
NAGIRPKFILALNDE : FALSE

stdin: Answer whether SPOT peptide array binding signal intensity of RRTRLRPPTPLSQLL is greater than or equal to 20.
stdout: TRUE

stdin: What do we get for NLKKRPPTAPQRKIS ?
stdout: TRUE

stdin: What do we get for VRTRRRPPPPPIPST ?
stdout: TRUE

stdin: What do we get for RKRRTHLRLPLIRSN ?
stdout: TRUE

stdin: What do we get for RKNRAPPQRPRFNRD ?
stdout: FALSE
